Experiment: HTRF signal interference by compounds, confirmation, artefact control for SUMOylation inhibitor project, biochemical, uHTS (AID 2069)
Settings: HTRF interference counterscreen, fluorescence, at 35 µM, active compounds read high
Screen size: about 1,200 compounds; about 210 (18%) were called active. A selection follows.
inhibition by entry:
Quick note: give the figure in %, leave out the unit.

# count of solved cases: 8
1) COc1ccc(S(=O)(=O)/N=C2/NC(=O)/C(=C\c3ccco3)S2)cc1 :: -10.3
2) CN(C)CCNS(=O)(=O)c1ccc2c3c(cccc13)C(=O)N2 :: 60.6
3) CC(C)c1ccc(S(=O)(=O)/N=C2/C=CC(=O)c3ccccc32)cc1 :: 11.3
4) CCN(CC)CCNS(=O)(=O)c1ccc2c3c(cccc13)C(=O)N2 :: 47.2
5) CCCCNC(=O)Oc1c(Br)cc2sc(=O)oc2c1Br :: 7.5
6) CN1C(=O)c2cccc3c(S(=O)(=O)NCCc4ccccc4)ccc1c23 :: 45
7) C/C(=N\NC(=O)c1cc(O)cc(O)c1)c1ccc(NC(=O)Cc2ccccc2)cc1 :: 25.6
8) COc1cc(/C=C(\C#N)C(=O)Nc2cccc(C(=O)O)c2)ccc1OCc1ccc(Cl)cc1 :: 19.7

molecule COc1ccccc1/C=C/C=c1\sc2nc(=O)c(Cc3ccccc3)nn2c1=O , inhibition observed: 0.1

molecule O=C1c2ccccc2C(=O)C12OC2c1ccc(Cl)cc1 (stereo not given) , inhibition observed: 4.4
